Target: Transient receptor potential cation channel subfamily V member 4 (Rattus norvegicus, UniProt Q9ERZ8)
Sequence (Q9ERZ8 whole entry): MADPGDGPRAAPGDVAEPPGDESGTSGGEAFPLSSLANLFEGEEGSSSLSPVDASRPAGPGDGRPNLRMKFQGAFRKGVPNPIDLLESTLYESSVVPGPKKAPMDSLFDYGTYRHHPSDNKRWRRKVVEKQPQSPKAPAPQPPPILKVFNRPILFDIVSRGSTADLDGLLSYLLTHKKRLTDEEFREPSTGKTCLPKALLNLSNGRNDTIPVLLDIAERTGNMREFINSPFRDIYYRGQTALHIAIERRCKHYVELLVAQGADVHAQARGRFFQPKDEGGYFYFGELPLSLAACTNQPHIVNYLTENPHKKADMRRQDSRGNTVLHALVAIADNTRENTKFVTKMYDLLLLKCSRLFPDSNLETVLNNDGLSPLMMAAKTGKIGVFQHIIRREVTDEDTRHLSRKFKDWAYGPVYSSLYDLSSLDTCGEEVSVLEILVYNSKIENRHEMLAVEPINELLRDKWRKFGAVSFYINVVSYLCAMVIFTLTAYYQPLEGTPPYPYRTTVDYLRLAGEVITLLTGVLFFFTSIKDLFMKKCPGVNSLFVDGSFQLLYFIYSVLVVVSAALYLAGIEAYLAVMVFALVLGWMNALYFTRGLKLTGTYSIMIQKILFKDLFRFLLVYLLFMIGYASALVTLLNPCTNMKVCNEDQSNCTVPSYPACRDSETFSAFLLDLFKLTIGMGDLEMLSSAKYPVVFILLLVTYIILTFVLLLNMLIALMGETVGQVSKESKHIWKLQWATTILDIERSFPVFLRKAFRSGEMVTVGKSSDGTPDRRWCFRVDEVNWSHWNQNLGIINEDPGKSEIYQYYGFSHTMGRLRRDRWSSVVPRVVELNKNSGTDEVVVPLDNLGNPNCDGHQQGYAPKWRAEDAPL
Assay: Antagonist activity at […] expressed in HEK293 cells assessed as inhibition of GSK1016790A-induced increase in intracellular calcium level pretreated for 5 mins followed by GSK1016790A addition by Fluo-4-AM dye based fluorescence assay
# IC50 per entry
Field format: number, assumed µM, no unit text.

> print(dat)
                           structure.smiles  endpoint  readout.number
1  CCCCCc1cc(O)c2c(c1)O[C@]1(C2)[C@@H](C)CCCC1(C)C      IC50             4.3
2  CCCCCc1cc(O)c2c(c1)O[C@]1(C2)[C@H](C)CCCC1(C)C      IC50            39.7

Challenge: Which IC50 is reported for this compound? "CCCCCc1cc(O)c2c(c1)O[C@@]1(C)CCCC(C)(C)[C@H]1C2"
Response given: 3.9

meta.source: ChEMBL document CHEMBL4229500
